# Target of assay: B-RAF V600E (Homo sapiens, UniProt P15056, V600E)
# Construct: expressed in transfected cells; host or cells: T-Rex 293 cells (Invitrogen #R71007)
# Sequence (P15056 whole entry V600E): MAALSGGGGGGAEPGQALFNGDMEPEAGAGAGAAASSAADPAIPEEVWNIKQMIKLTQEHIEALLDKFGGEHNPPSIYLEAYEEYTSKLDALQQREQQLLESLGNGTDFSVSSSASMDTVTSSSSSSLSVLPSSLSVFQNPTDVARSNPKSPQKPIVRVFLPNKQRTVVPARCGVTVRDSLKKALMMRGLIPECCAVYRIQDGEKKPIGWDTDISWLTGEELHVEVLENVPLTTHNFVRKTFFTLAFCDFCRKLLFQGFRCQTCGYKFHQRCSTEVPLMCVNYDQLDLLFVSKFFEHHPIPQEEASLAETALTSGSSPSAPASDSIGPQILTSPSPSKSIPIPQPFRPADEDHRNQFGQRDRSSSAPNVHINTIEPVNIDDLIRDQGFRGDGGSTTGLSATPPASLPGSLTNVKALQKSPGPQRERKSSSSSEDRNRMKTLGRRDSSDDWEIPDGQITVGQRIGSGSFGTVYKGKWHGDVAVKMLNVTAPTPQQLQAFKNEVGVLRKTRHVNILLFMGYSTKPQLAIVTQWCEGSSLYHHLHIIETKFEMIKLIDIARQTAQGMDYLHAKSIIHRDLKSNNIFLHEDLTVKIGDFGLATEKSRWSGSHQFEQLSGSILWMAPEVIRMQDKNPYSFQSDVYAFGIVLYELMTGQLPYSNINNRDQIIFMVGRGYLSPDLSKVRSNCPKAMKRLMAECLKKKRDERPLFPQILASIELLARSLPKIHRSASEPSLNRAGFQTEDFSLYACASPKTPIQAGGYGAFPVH
# Experimental protocol: Target protein degradation, assay C: T-Rex 293 cells, HA-BRAF_V600E, 384 well format
# Type: cell-based
# Condition notes: Assay C, T-Rex 293 HA-BRAF_V600E cells, 24 hours, Examples 83-269
Observable: DC50

molecule="CCN(C)S(=O)(=O)Nc1ccc(F)c(Oc2ccc3ncn(-c4ccc(N5CCN(CC6CN(c7ccc8c(c7)CN(C7CCC(=O)NC7=O)C8=O)C6)CC5)cc4)c(=O)c3c2)c1C#N (centres unmarked) [Example 181]" observable=DC50 obs_value="50 to 500 nM"
molecule="N#Cc1c(NS(=O)(=O)N2CC[C@@H](F)C2)ccc(F)c1Oc1ccc2ncn(-c3ccc(N4CCN(CC5CCN(c6ccc7c(c6)CN(C6CCC(=O)NC6=O)C7=O)CC5)CC4)cc3F)c(=O)c2c1 (some centres unmarked) [Example 87]" observable=DC50 obs_value="> 500 nM"
molecule="N#Cc1c(NS(=O)(=O)N2CC[C@@H](F)C2)ccc(F)c1Oc1ccc2ncn(-c3cnc(N4CCC(CC5CCCN5c5ccc6c(c5)C(=O)N(C5CCC(=O)NC5=O)C6=O)CC4)nc3)c(=O)c2c1 (some centres unmarked) [Example 156]" observable=DC50 obs_value="50 to 500 nM"
molecule="N#Cc1c(NS(=O)(=O)N2CC[C@@H](F)C2)ccc(F)c1Oc1ccc2ncn(-c3cnc(C4(N5CCN(CC6CN(c7ccc(C8CCC(=O)NC8=O)cc7F)C6)CC5)CC4)nc3)c(=O)c2c1 (some centres unmarked) [Example 105]" observable=DC50 obs_value="5 to 50 nM"
molecule="N#Cc1c(NS(=O)(=O)N2CC[C@@H](F)C2)ccc(F)c1Oc1ccc2ncn(-c3ccc(N4CCN([C@H]5C[C@H](OC6CCN(c7ccc8c(c7)CN(C7CCC(=O)NC7=O)C8=O)CC6)C5)CC4)cc3)c(=O)c2c1 (some centres unmarked) [Example 251]" observable=DC50 obs_value="50 to 500 nM"

Attribution: patent US11957759B1
